Listed here: items and their measured pKd.
Target: thrombin (alpha-thrombin) (Homo sapiens, UniProt P00734;P00734 P00734:315-363,P00734:364-622)
Assay: filter
The quantity pKd is defined as the negative base-10 logarithm of the molar concentration.

Consider the reported pKd for these binders:
UGATTAGGTTGGGTAGGGTGGTAUCA (XNA, 2'-OMe 1-3,24-26, rest DNA) [ARC2843] = 9.21
ACTGCCTAGGTTGGGTAGGGTGGTGGCAGT (XNA, 2'-OMe G25, rest DNA) [ARC2637] = 9.93
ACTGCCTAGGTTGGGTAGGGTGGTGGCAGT (ssDNA, PS linkage between nt 17 and 18) [ARC2660] = 9.64
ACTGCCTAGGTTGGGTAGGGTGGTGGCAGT (ssDNA, PS linkage between nt 5 and 6) [ARC2648] = 9.89
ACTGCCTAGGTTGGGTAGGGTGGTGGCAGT (ssDNA, PS linkage between nt 4 and 5) [ARC2647] = 9.79

Please give the measured pKd for this binder: AATGATTAGGTTGGGTAGGGTGGTATCATT (ssDNA) [ARC2826]
9.11

Which pKd is listed for UGCCTAGGTTGGGTAGGGTGGTGGCA (XNA, 2'-OMe 1-4,23,25,26, rest DNA) [ARC2838] ?
9.11

Dear colleague, I am looking for the recorded pKd of the following binder: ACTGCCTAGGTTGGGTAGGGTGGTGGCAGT (ssDNA, PS linkage between nt 13 and 14) [ARC2656]
9.82

Which pKd reading was recorded for the binder ACUGCCUAGGTTGGGTAGGGTGGUGGCAGU (XNA, 2'-OMe 1-7,24,25,27-30, rest DNA) [ARC2823] ?
8.04

Name the reported pKd value associated with the binder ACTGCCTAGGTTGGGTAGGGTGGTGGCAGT (ssDNA, PS linkage between nt 20 and 21) [ARC2663]
9.74
